TARGET_OR_TEST_SYSTEM: Mitogen-activated protein kinase kinase kinase 5 (Homo sapiens)
Sequence (whole entry): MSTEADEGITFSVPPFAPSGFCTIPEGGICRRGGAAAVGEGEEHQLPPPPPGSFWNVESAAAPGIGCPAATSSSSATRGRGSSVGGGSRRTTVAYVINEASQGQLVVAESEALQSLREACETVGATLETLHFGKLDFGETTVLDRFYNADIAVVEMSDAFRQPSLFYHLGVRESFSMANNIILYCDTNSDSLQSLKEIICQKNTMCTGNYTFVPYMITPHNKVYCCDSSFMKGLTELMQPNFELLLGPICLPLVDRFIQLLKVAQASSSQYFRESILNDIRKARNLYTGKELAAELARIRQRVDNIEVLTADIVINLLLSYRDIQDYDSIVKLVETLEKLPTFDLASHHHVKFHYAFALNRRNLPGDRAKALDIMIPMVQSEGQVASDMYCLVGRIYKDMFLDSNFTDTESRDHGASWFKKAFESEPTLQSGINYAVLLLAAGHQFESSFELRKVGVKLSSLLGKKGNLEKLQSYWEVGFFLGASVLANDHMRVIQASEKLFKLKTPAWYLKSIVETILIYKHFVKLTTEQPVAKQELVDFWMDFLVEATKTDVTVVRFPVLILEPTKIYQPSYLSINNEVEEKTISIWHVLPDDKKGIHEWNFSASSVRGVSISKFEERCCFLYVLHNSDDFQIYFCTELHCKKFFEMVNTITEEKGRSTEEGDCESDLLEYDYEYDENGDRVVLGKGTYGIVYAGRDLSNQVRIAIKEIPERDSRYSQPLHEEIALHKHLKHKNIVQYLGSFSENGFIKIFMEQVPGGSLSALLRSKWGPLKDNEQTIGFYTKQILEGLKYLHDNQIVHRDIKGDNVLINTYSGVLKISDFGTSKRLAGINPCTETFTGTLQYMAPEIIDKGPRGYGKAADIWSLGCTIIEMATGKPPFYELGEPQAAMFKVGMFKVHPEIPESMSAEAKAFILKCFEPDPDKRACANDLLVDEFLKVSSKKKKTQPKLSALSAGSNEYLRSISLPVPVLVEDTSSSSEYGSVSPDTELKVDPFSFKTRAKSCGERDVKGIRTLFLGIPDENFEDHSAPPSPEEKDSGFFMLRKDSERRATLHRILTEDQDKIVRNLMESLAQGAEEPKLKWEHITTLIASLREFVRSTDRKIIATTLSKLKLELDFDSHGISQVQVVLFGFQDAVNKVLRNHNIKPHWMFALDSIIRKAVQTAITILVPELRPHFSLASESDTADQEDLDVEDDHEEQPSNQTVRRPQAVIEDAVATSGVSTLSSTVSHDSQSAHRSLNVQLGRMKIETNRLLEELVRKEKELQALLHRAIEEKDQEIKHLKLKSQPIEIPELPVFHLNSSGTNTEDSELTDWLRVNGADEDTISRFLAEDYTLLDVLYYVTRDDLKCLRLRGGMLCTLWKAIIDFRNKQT
ASSAY_TEXT: Inhibition of ASK1 assessed as phosphorylated fluorescent peptide at 10 uM by mobility shift assay
// reported inhibition for each item listed
PROPERTY_LABEL: inhibition

{"SAMPLE_SMILES": "Nc1nc(Nc2cccc3ccccc23)c2nc[nH]c2n1", "RESULT": "> 30%"}
{"SAMPLE_SMILES": "O=C(Nc1ccc(N2CCOCC2)cc1)c1n[nH]c2ccccc12", "RESULT": "> 30%"}
{"SAMPLE_SMILES": "c1nc(N2CCCCC2)c2nc[nH]c2n1", "RESULT": "> 50%"}
{"SAMPLE_SMILES": "Cc1c(C)n(CC(C)C)c2ncnc(N)c12", "RESULT": "> 30%"}
{"SAMPLE_SMILES": "Nc1nc(SCCCCC(O)O)c2nc[nH]c2n1", "RESULT": "> 30%"}
{"SAMPLE_SMILES": "Cc1c(C)n(C2CCCC2)c2nc[nH]c(=O)c12", "RESULT": "> 30%"}
{"SAMPLE_SMILES": "CCNc1nc(N)c(C(C)=O)s1", "RESULT": "> 30%"}
{"SAMPLE_SMILES": "CN(C)c1ncnc2nc[nH]c12", "RESULT": "> 30%"}
{"SAMPLE_SMILES": "CSc1nc(N)nc2[nH]cnc12", "RESULT": "> 50%"}

----------
TARGET_OR_TEST_SYSTEM: Mitogen-activated protein kinase kinase kinase 5 (Homo sapiens, UniProt Q99683)
ASSAY_TEXT: Inhibition of ASK1 assessed as phosphorylated fluorescent peptide by mobility shift assay

{"SAMPLE_SMILES": "COc1ccc(OC)c(Nc2nc(N)nc3[nH]cnc23)c1", "TARGET_OR_TEST_SYSTEM": "Mitogen-activated protein kinase kinase kinase 5 (Homo sapiens, UniProt Q99683)", "IC50": "18.9 µM"}
{"SAMPLE_SMILES": "CC(C)(C)c1ccc(C(=O)Nc2cn3cc(-n4ccnc4)ccc3n2)cc1", "TARGET_OR_TEST_SYSTEM": "Mitogen-activated protein kinase kinase kinase 5 (Homo sapiens, UniProt Q99683)", "IC50": "0.014 µM"}
{"SAMPLE_SMILES": "CC(C)(C)c1ccc(C(=O)Nc2cn3c(ccc4ccccc43)n2)cc1", "TARGET_OR_TEST_SYSTEM": "Mitogen-activated protein kinase kinase kinase 5 (Homo sapiens, UniProt Q99683)", "IC50": "0.015 µM"}
{"SAMPLE_SMILES": "CSc1nc(N)nc2[nH]cnc12", "TARGET_OR_TEST_SYSTEM": "Mitogen-activated protein kinase kinase kinase 5 (Homo sapiens, UniProt Q99683)", "IC50": "13.3 µM"}
{"SAMPLE_SMILES": "CCCN(CCC)c1[nH]cnc2ncnc1-2", "TARGET_OR_TEST_SYSTEM": "Mitogen-activated protein kinase kinase kinase 5 (Homo sapiens, UniProt Q99683)", "IC50": "25.8 µM"}
{"SAMPLE_SMILES": "c1nc(N2CCCCC2)c2nc[nH]c2n1", "TARGET_OR_TEST_SYSTEM": "Mitogen-activated protein kinase kinase kinase 5 (Homo sapiens, UniProt Q99683)", "IC50": "17 µM"}
{"SAMPLE_SMILES": "CC(C)(C(=O)O)c1ccc(C(=O)Nc2cn3cc(-c4ccsc4)ccc3n2)cc1", "TARGET_OR_TEST_SYSTEM": "Mitogen-activated protein kinase kinase kinase 5 (Homo sapiens, UniProt Q99683)", "IC50": "0.019 µM"}

----------
// reported inhibition for each item listed
TARGET_OR_TEST_SYSTEM: Mitogen-activated protein kinase kinase kinase 5 (Homo sapiens) (UniProt Q99683)
Sequence (whole entry): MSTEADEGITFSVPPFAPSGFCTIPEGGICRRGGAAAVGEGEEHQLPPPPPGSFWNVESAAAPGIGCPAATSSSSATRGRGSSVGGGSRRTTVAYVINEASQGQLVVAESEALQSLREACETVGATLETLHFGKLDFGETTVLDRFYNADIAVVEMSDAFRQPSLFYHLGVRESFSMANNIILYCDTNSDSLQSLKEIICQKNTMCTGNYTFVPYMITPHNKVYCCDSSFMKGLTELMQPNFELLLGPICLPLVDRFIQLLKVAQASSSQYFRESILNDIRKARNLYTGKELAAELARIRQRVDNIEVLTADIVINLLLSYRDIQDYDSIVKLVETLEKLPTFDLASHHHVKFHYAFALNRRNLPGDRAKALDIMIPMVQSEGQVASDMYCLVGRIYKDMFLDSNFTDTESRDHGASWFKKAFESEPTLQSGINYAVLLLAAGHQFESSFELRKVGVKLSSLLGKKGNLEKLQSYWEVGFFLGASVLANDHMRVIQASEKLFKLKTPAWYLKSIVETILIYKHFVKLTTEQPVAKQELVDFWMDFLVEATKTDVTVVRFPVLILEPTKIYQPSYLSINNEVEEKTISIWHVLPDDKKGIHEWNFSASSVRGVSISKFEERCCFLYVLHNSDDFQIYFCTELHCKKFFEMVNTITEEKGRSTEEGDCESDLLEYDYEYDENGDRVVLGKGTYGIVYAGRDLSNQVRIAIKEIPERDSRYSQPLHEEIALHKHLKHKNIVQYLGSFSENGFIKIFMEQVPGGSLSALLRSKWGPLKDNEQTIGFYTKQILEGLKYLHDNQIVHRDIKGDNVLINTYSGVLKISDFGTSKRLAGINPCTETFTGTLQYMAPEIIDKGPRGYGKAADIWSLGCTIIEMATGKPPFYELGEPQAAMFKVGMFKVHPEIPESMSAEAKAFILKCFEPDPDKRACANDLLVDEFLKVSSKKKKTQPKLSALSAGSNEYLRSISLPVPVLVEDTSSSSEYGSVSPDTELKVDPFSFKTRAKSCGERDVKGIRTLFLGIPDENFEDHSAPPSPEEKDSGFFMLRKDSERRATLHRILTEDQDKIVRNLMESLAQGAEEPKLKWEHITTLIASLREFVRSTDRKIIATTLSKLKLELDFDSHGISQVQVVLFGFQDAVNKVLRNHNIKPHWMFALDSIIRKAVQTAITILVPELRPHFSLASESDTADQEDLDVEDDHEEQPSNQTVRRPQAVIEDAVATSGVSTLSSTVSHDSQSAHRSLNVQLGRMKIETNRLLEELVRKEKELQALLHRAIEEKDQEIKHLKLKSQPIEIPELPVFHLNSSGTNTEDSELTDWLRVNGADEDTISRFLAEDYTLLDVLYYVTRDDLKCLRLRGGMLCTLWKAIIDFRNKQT
ASSAY_TEXT: Inhibition of ASK1 assessed as phosphorylated fluorescent peptide at 10 uM by mobility shift assay

{"SAMPLE_SMILES": "CNc1nc(N)c(C(=O)c2ccc(F)cc2)s1", "TARGET_OR_TEST_SYSTEM": "Mitogen-activated protein kinase kinase kinase 5 (Homo sapiens) (UniProt Q99683)", "inhibition": "> 30%"}
{"SAMPLE_SMILES": "COc1cccc(C(=O)NN2CC(=O)C(c3nc4ccccc4c(=O)[nH]3)=C2N)c1", "TARGET_OR_TEST_SYSTEM": "Mitogen-activated protein kinase kinase kinase 5 (Homo sapiens) (UniProt Q99683)", "inhibition": "> 30%"}
{"SAMPLE_SMILES": "Nc1nc(OCC2CCCCC2)c2nc[nH]c2n1", "TARGET_OR_TEST_SYSTEM": "Mitogen-activated protein kinase kinase kinase 5 (Homo sapiens) (UniProt Q99683)", "inhibition": "> 50%"}
{"SAMPLE_SMILES": "Nc1nc(N)c2c(Cl)c(Br)ccc2n1", "TARGET_OR_TEST_SYSTEM": "Mitogen-activated protein kinase kinase kinase 5 (Homo sapiens) (UniProt Q99683)", "inhibition": "> 30%"}
{"SAMPLE_SMILES": "NC(=O)c1ccc(-n2cnc3ccccc32)cc1", "TARGET_OR_TEST_SYSTEM": "Mitogen-activated protein kinase kinase kinase 5 (Homo sapiens) (UniProt Q99683)", "inhibition": "> 30%"}
{"SAMPLE_SMILES": "CS(=O)(=O)c1ccc(C(=O)Nc2nc3ccccc3[nH]2)cc1[N+](=O)[O-]", "TARGET_OR_TEST_SYSTEM": "Mitogen-activated protein kinase kinase kinase 5 (Homo sapiens) (UniProt Q99683)", "inhibition": "> 30%"}
{"SAMPLE_SMILES": "Nc1nc(SCc2c(Cl)cccc2Cl)c2nc[nH]c2n1", "TARGET_OR_TEST_SYSTEM": "Mitogen-activated protein kinase kinase kinase 5 (Homo sapiens) (UniProt Q99683)", "inhibition": "> 30%"}
{"SAMPLE_SMILES": "Nc1nc(OCc2ccccc2)c2nc[nH]c2n1", "TARGET_OR_TEST_SYSTEM": "Mitogen-activated protein kinase kinase kinase 5 (Homo sapiens) (UniProt Q99683)", "inhibition": "> 30%"}
{"SAMPLE_SMILES": "COc1ccc(OC)c(Nc2nc(N)nc3[nH]cnc23)c1", "TARGET_OR_TEST_SYSTEM": "Mitogen-activated protein kinase kinase kinase 5 (Homo sapiens) (UniProt Q99683)", "inhibition": "> 50%"}
{"SAMPLE_SMILES": "CCCN(CCC)c1[nH]cnc2ncnc1-2", "TARGET_OR_TEST_SYSTEM": "Mitogen-activated protein kinase kinase kinase 5 (Homo sapiens) (UniProt Q99683)", "inhibition": "> 50%"}
{"SAMPLE_SMILES": "CNc1nc(-c2cccnc2)cn2ccnc12", "TARGET_OR_TEST_SYSTEM": "Mitogen-activated protein kinase kinase kinase 5 (Homo sapiens) (UniProt Q99683)", "inhibition": "> 30%"}
{"SAMPLE_SMILES": "O=C(Nc1nc2ccccc2[nH]1)c1ccc2ncsc2c1", "TARGET_OR_TEST_SYSTEM": "Mitogen-activated protein kinase kinase kinase 5 (Homo sapiens) (UniProt Q99683)", "inhibition": "> 30%"}
